All figures here come from paper PMC7826789.

Percent Control values, listed per item
- Test system: FLT3(D835V)
- condition context: Compound Concentration (nM):1000;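 note: KINOMEscan scanMAX binding as percent activity remaining versus control; lower means stronger binding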
Respond with the bare value in %.

Cl.O=C(Nc1ccc(Oc2ccc3[nH]c(NC(=O)c4ccccc4)nc3c2)cc1)Nc1cc(C(F)(F)F)ccc1F [GW709042A]: 28

Prompt: Consider the compound shown here: `COc1ccc2cc(-c3c(-c4ccncc4)nc(-c4ccc(S(C)(=O)=O)cc4C)n3C)ccc2c1` What is its recorded Percent Control?
Completion: 74

Prompt: Continue with COc1cc(C=NNc2ncnc3c2cnn3-c2ccccc2)ccc1O [GW513184X]
Completion: 3

Prompt: Then Cl.O=C(Nc1ccc(Oc2ccc3[nH]c(NC(=O)c4ccco4)nc3c2)cc1)Nc1cc(C(F)(F)F)ccc1F [GW683134A] ?
Completion: 13

Prompt: Also Nc1ncnc2occ(-c3ccc(NC(=O)Nc4cc(C(F)(F)F)ccc4F)cc3)c12 [GW770249X] , if possible.
Completion: 4.1

Prompt: Thanks! And Cl.O=C(O[C@H]1CN[C@H](C#Cc2cc3ncnc(Nc4ccc5c(cnn5Cc5ccccc5)c4)c3s2)C1)N1CCOCC1 [GSK200398A] ?
Completion: 87

Prompt: And COC(=O)Nc1nc2ccc(Oc3ccc(NC(=O)Nc4cc(C(F)(F)F)ccc4F)cc3)cc2s1.Cl [GW693917A] ?
Completion: 13

###

// values below are reported Percent Control
- Tested on: FLT3(D835H)
- condition context: Compound Concentration (nM):1000
Write the answer as a number in %, unit excluded.

CCS(=O)(=O)c1ccc(OC)c(Nc2ncc(-c3cccc(OC)c3)o2)c1 [GW580509X]: 0.5
Cl.O=C(O[C@H]1CN[C@H](C#Cc2cc3ncnc(Nc4ccc5c(cnn5Cc5ccccc5)c4)c3s2)C1)N1CCOCC1 [GSK200398A]: 96
Cl.O=C(Nc1ccc(Oc2ccc3[nH]c(NC(=O)c4ccco4)nc3c2)cc1)Nc1cc(C(F)(F)F)ccc1F [GW683134A]: 0.4

Prompt: What measured Percent Control goes with COc1cccc(-n2ncc3c(N/N=C/c4ccncc4)ncnc32)c1 [GW784752X] ?
Completion: 22

Prompt: Another compound: COc1ccc2c(-c3ccnc(Nc4cccc(OC(F)(F)F)c4)n3)cnn2n1 [GW810372X]
Completion: 0

###

- Test system: BMX
- condition context: Compound Concentration (nM):1000
# Percent Control values compiled below
Your answer should be a plain number; it is taken to be in %.

C/C(Nc1ccc(S(N)(=O)=O)cc1)=C1/C(=O)Nc2ccccc21 [GW335962X]: 86
Cl.O=S1CCN(Cc2ccc(-c3ccc4ncnc(Nc5ccc(OCc6ccccc6)c(F)c5)c4c3)o2)CC1 [GW576924A]: 100
CN1CCN(C(=O)c2ccc(NC(=O)Nc3ccc(N(C)c4ccnc(Nc5ccc(CS(C)(=O)=O)cc5)n4)cc3)cc2)CC1.Cl [GW830263A]: 59

Prompt: So what does the record say about Percent Control for COc1cc2ncn(-c3cc(O[C@H](C)c4ccccc4Cl)c(C(N)=O)s3)c2cc1OC [GSK237701A] ?
Completion: 75

Prompt: Next compound up: Cl.c1ccc(Cc2nc3ccc(Nc4ncnc5ccccc45)cc3[nH]2)cc1 [GR269666A]
Completion: 100

Prompt: Again, but for CN(C)c1cc2c(Nc3ccc4c(cnn4Cc4ccccc4)c3)ncnc2cn1 [GW282974X]
Completion: 100

Prompt: What about O=C(Nc1n[nH]c2nc(-c3ccc(O)cc3)c(Br)cc12)C1CC1 [SB-725317] ?
Completion: 100

Prompt: What would you report for CC1=C(C(=O)Nc2ccc3[nH]ncc3c2)C(c2ccc3ccccc3c2)CC(=O)N1 (centres unmarked) [GSK270822A] ?
Completion: 78
